Molecular target: T1, recombinant protein consisting of the extracellular domain of human TREM2 fused to the His tag (human, UniProt Q9NZC2 19-174)
T1 construct: also called His tagged hTREM2; His-TREM2
T1 sequence: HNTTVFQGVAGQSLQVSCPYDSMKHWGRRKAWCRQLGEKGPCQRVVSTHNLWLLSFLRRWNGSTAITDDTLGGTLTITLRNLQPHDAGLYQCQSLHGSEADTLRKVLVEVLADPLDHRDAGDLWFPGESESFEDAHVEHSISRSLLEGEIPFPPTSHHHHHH
Assay: direct ELISA, coated His-TREM2 0.5 ug/mL, Ab stock 1 mg/mL

binder: 83E10B12 (antibody, V domains shown, Biotin conjugated in sup ELISA, cell-based ELISA and flow cytometry) VH: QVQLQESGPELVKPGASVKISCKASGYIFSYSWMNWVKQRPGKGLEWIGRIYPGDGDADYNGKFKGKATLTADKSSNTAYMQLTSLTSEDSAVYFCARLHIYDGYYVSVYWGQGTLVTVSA VL: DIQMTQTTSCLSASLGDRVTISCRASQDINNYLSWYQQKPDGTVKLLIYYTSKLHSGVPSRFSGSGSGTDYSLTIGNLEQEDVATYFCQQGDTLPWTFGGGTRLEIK
OD at dilution 9000, OD: 1.98

binder: 60H4G2 (antibody, V domains shown, Biotin conjugated in sup ELISA, cell-based ELISA and flow cytometry) VH: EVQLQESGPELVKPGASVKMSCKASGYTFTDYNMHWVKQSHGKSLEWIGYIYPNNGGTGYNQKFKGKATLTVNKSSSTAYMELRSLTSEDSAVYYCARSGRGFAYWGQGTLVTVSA VL: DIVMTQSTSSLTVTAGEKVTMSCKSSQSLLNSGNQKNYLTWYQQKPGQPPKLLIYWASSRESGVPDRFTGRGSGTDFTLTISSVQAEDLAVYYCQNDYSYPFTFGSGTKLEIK
OD at dilution 9000, OD: 1.69

binder: 61B11C9 (antibody, V domains shown, Biotin conjugated in sup ELISA, cell-based ELISA and flow cytometry) VH: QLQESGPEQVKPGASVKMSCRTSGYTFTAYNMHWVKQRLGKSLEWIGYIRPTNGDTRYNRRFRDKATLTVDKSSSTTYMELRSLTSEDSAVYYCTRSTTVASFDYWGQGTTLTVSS VL: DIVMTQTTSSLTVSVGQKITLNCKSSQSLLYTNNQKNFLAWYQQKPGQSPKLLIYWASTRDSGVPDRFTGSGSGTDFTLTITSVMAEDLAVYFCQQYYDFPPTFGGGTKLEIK
OD at dilution 9000, OD: 2.88
